src = paper PMC12040169

Answer each item with its documented viability at 28.5 h, 10 µM.
Test: in vitro
Details: human, hela cells, % viability
Reply numerically in %, unit not repeated.

Kindly indicate its recorded viability at 28.5 h, 10 µM. Item: O=C(CCCn1nnc2ccccc2c1=O)NCc1cccc(Cl)c1 [CBK294446]
82.8

Kindly indicate its recorded viability at 28.5 h, 10 µM. Item: O=C1NC[C@@H](Cc2ccccc2)NC(=O)C2(C/C=C/COc3ccccc31)CCN(C(=O)CN1CCCC1)CC2 [CBK292184]
103

Kindly indicate its recorded viability at 28.5 h, 10 µM. Item: O=C(Cn1ccnc1)N1CCCCC1c1nc2ccccc2[nH]1 (stereo not shown) [CBK283936]
107

Kindly indicate its recorded viability at 28.5 h, 10 µM. Item: O=C(c1ccccc1F)N1C[C@H](c2ccsc2)[C@H]2CN(Cc3cccc(F)c3)CC[C@H]21 [CBK285660]
120
